- target: T1, MSUT2 (ZC3H14) CCCH zinc finger domain (Homo sapiens, UniProt Q6PJT7 Q6PJT7:595-719)
- T1 chain: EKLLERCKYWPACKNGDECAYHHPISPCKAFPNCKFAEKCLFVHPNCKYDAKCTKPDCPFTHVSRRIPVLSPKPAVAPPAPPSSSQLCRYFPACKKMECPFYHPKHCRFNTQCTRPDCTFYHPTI
- measurementProtocol: SPR; Biacore T200, biotin capture, from kinetics at 0.6-1 uM protein
- conditionDescription: tags: GST fusion (pGEX6P-1), E. coli BL21(DE3), benzonase treated; label: 5' BiotinTEG
- Method: SPR experiments were conducted on a Biacore T200 using the Biotin Capture Kit Series S following the manufacturer's instructions (GE). Biotin capture reagent was applied to the sensor chip at a flow rate of 2 μl/minute for 300 seconds. 1 nM biotinylated RNA (BiotinTEG-[…]; SEQ ID NO: 25) was captured at a flow rate of 10 μl/minute for 180 seconds. Samples were flowed across the sensor chip at 50 μl/minute for 120 seconds and the chip was regenerated for 120 seconds at a flow rate of 10 μl/minute.
endpointName: pKd
Answers are plain numbers, as −log10 of the molar value.

[Q] Return reported pKd; argument: AAAAAAAAAAAAAAA (ssRNA) [biotin-poly(A)15]
[A] 7.22
